# Assay comment: Cell culture media unbound percentage and stability by rapid equilibrium dialysis (Example C)
# Assay type: in vitro ADME
# Condition description: bovine, cell assay medium (RPMI-1640 with 10% fetal bovine serum), pH 7.4, rapid equilibrium dialysis, 4 hours at 37° C., read-out: Cell Culture Media Binding (% unbound)
Test readout: fraction unbound at 4 h, 1 µM

Here are 3 compounds together with their reported answers.
>>> assay_result("CN(C)c1nc2cc(S(=O)(=O)N(C)c3ccc([C@H]4CCC[C@@H](C(=O)Nc5ccc(C(F)(F)F)cc5F)[C@@H]4C(=O)O)cc3)ccc2n1C")
0.0195
>>> assay_result("CN(c1ccc([C@H]2CCC[C@@H](C(=O)Nc3ccc(C(F)(F)F)cc3F)[C@@H]2C(=O)O)cc1)S(=O)(=O)c1cccc([C@H]2CCCNC2)c1")
0.278
>>> assay_result("CC(=O)N1CCc2cc(S(=O)(=O)N(C)c3ccc([C@H]4CCC[C@@H](C(=O)Nc5ccc(C(F)(F)F)cc5F)[C@@H]4C(=O)O)cc3)ccc21 (single isomer, unassigned)")
0.0553

P = Cc1nc2cc(S(=O)(=O)N(C)c3ccc([C@@H]4CCC[C@H](C(=O)Nc5ccc(C(F)(F)F)cn5)[C@H]4C(=O)O)cc3)ccc2n1C (relative stereo)
Q = CC(=O)N(C)[C@@H]1C[C@H](c2ccc(N(C)S(=O)(=O)c3ccc4c(c3)nc(C)n4C)cc2)[C@@H](C(=O)O)[C@H](C(=O)Nc2ccc(C(F)(F)F)cc2F)C1 (stereo in doubt)
Which of these two has the smaller recorded fraction unbound at 4 h, 1 µM: P or Q ? Respond using the label that marks the chosen record.
P
(P: 0.0585, Q: 0.223)

====

# Target entity: recombinant full-length WRN protein (1-1432) (Homo sapiens)
# Construct: recombinant full-length WRN protein (1-1432)
# Assay comment: WRN unwinding activity, fluorogenic 384-well assay (Example A)
# Format: biochemical
# Condition description: WRN unwinding activity, 4 hr; Table 2; read-out: 4 hr UNW pIC50 (converted)
Test readout: IC50 (µM)

>>> assay_result("Cc1nc2cc(S(=O)(=O)N(C)c3ccc([C@H]4CCC[C@@H](C(=O)Nc5ccc(C(C)C)cc5)[C@@H]4C(=O)O)cc3)ccc2n1C (single isomer, unassigned) [Example 80]")
0.00158

A = Cc1cc(N(C)S(=O)(=O)c2ccc3c(c2)nc(C)n3C)ccc1[C@@H]1CCC[C@H](C(=O)Nc2ccc(C(F)(F)F)cc2F)[C@H]1C(=O)O (stereo in doubt) [Example 385]
B = CN[C@@H]1C[C@H](C(=O)Nc2ccc(C(F)(F)F)cc2F)[C@@H](C(=O)O)[C@H](c2ccc(N(C)S(=O)(=O)c3ccc4c(c3)nc(C)n4C)cc2)C1 (single isomer, unassigned) [Example 257]
C = CN(c1ccc([C@H]2CCC[C@@H](C(=O)Nc3ccc(C(F)(F)F)cc3F)[C@@H]2C(=O)O)cc1)S(=O)(=O)c1ccc2c(c1)nc(N)n2C [Example 266]
D = Cc1nc2cc(S(=O)(=O)N(C)c3ccc([C@H]4CCC[C@@H](C(=O)Nc5ccc(C(F)(F)F)nc5)[C@@H]4C(=O)O)cc3)ccc2n1C [Example 172]
E = Cc1nc2cc(S(=O)(=O)N(C)c3ccc([C@H]4CCC[C@@H](CO[C@H]5CC[C@H](C(F)(F)F)CC5)[C@@H]4C(=O)O)cc3)ccc2n1C [Example 215]
// ranking: key=IC50, reverse=True Rank them, then answer with their labels in that order.
A, B, E, D, C
(A: 1.26 µM, B: 0.251 µM, E: 0.0794 µM, D: 0.00398 µM, C: 0.00126 µM)

I = CN(c1ccc([C@H]2CCC[C@@H](C(=O)Nc3ccc(C(F)(F)F)cc3F)[C@@H]2C(=O)O)cc1)S(=O)(=O)c1ccc2c(c1)ncn2C (single isomer, unassigned) [Example 87]
II = COc1cccc(S(=O)(=O)N(C)c2ccc([C@H]3CCC[C@@H](C(=O)Nc4ccc(C(F)(F)F)cc4F)[C@@H]3C(=O)O)cc2)c1 (racemic) [Example 82]
Param metric = IC50; output whichever of I , II has the minimum value. Answer format: the label of the selected item.
II

1 = C#CC(=O)N(C)c1ccc([C@H]2CCC[C@@H](C(=O)Nc3ccc(C(F)(F)F)cc3F)[C@@H]2C(=O)O)cc1 [Example 229]
2 = Cc1nc2cc(S(=O)(=O)N(C)c3ccc([C@H]4CCC[C@@H](C(=O)Nc5c(F)cc(C(C)C)cc5F)[C@@H]4C(=O)O)cc3)ccc2n1C (single isomer, unassigned) [Example 170]
3 = O=C(O)[C@@H]1[C@@H](c2ccc(-c3ncsc3CO)cc2)CCC[C@H]1C(=O)Nc1ccc(C(F)(F)F)cc1F [Example 52]
Rank ascending by IC50. Provide your answer as the labels ordered per the instruction.
2, 1, 3

====

# Target entity: recombinant full-length WRN protein (1-1432) (Homo sapiens, UniProt Q14191)
# Construct: recombinant full-length WRN protein (1-1432)
# Sequence (Q14191 whole entry): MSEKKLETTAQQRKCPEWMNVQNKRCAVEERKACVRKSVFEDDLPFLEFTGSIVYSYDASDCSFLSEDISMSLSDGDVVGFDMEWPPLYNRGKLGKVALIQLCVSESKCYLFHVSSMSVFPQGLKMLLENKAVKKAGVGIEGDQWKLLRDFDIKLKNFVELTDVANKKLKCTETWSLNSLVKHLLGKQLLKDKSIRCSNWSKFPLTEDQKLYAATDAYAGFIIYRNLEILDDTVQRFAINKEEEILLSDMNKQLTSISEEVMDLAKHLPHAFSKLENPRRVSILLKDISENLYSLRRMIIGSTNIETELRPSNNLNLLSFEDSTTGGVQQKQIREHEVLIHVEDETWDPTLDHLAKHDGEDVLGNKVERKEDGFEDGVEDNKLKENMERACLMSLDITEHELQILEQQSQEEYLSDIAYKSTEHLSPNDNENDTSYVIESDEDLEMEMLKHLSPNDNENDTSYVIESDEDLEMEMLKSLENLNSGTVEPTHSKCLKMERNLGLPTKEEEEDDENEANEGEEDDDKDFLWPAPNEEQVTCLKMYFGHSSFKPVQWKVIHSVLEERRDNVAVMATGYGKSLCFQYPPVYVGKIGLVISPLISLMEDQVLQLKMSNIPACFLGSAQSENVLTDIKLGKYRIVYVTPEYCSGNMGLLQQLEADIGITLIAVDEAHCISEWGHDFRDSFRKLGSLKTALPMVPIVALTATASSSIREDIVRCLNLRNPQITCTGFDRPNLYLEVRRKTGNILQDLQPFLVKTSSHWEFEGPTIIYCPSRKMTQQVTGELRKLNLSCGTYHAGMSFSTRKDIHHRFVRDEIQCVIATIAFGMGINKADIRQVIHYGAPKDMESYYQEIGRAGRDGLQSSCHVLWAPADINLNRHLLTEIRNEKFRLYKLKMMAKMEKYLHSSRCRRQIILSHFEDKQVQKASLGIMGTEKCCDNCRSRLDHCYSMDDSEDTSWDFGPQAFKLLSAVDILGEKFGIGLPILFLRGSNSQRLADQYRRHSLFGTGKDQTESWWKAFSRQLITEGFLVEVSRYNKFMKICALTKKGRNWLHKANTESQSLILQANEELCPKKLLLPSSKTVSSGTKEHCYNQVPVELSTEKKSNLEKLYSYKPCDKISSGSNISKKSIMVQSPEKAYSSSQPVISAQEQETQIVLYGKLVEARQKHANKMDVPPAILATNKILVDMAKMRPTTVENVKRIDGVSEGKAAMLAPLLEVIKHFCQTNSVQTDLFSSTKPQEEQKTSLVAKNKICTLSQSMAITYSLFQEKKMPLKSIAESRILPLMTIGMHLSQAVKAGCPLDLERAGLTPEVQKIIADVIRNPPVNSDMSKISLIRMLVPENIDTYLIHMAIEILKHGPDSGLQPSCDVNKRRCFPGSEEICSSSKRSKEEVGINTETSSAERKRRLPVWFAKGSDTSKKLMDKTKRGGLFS
# Assay comment: WRN unwinding activity, fluorogenic 384-well assay (Example A)
# Format: biochemical
# Condition description: WRN unwinding activity, 4 hr; Table 2; read-out: 4 hr UNW pIC50 (converted)
Where a name gives a salt, the structure may show the parent alone.
Test readout: IC50 (nM)

>>> assay_result("COC(=O)c1cncc(-c2ccc([C@H]3CCC[C@@H](C(=O)Nc4ccc(C(F)(F)F)cc4F)[C@@H]3C(=O)O)cc2)c1")
10000
>>> assay_result("COC[C@@H]1C[C@H](c2ccc(N(C)S(=O)(=O)c3ccc4c(c3)nc(C)n4C)cc2)[C@@H](C(=O)O)[C@H](C(=O)Nc2ccc(C(F)(F)F)cc2F)C1 (single isomer, unassigned)")
6.31

I = CCO[C@@H]1C[C@H](c2ccc(N(C)S(=O)(=O)c3ccc4c(c3)nc(C)n4C)cc2)[C@@H](C(=O)O)[C@H](C(=O)Nc2ccc(C(F)(F)F)cc2F)C1 (single isomer, unassigned)
II = Cc1nc2cc(S(=O)(=O)N(C)c3ccc([C@@H]4CCC[C@H](COc5ccc(C(F)(F)F)cc5)[C@H]4C(=O)O)cc3)cc([C@@H]3CCCN(C)C3)c2n1C (single isomer, unassigned) [Example 211, formic acid salt]
Endpoint returns the identifier whose IC50 is numerically larger, either I or II . Give the label of your selection.
I
(I: 3.16 nM, II: 2 nM)

====

Listed here are compounds together with their documented Free Drug SW48 pCC50.
# Tested on: SW48 human colorectal cancer cells
# Assay comment: Calculated free drug potency in SW48 cell assay, corrected with media free fraction (Example C)
# Assay type: cell-based
# Condition description: SW48 pCC50 corrected with measured free fraction in cell assay media
Write no unit; give the number alone.

Examples from the recorded data:
>>> assay_result("Cc1nc2cc(S(=O)(=O)N(C)c3ccc([C@H]4C[C@@H]5OCC[C@@H]5[C@@H](C(=O)Nc5ccc(C(F)(F)F)cc5F)[C@@H]4C(=O)O)cc3)ccc2n1C (single isomer, unassigned) [Example 158]")
6.03
>>> assay_result("Cc1nc2cc(S(=O)(=O)N(C)c3ccc([C@H]4C[C@@H](N5CCC[C@@H](F)C5)C[C@@H](C(=O)Nc5ccc(C(F)(F)F)cc5F)[C@@H]4C(=O)O)cc3)ccc2n1C (single isomer, unassigned) [Example 347]")
6.17
>>> assay_result("Cc1nc2cc(S(=O)(=O)N(C)c3ccc([C@H]4C[C@@H](N5CCC[C@@H](F)C5)C[C@@H](C(=O)Nc5ccc(C(F)(F)F)cc5F)[C@@H]4C(=O)O)cc3)ccc2n1C (single isomer, unassigned) [Example 376]")
7.70
>>> assay_result("CN(c1ccc([C@H]2CCC[C@@H](C(=O)Nc3ccc(C(F)(F)F)cc3F)[C@@H]2C(=O)O)cc1)S(=O)(=O)c1ccc(-c2ccn(C)n2)cc1")
7.77
>>> assay_result("Cc1nc2cc(S(=O)(=O)N(C)c3ccc([C@@H]4C[C@@H]5COC[C@@H]5[C@@H](C(=O)Nc5ccc(C(F)(F)F)cc5F)[C@@H]4C(=O)O)cc3)ccc2n1C (single isomer, unassigned)")
6.49
>>> assay_result("Cc1nc2cc(S(=O)(=O)N(C)c3ccc([C@H]4C[C@@H]5OCC[C@@H]5[C@@H](C(=O)Nc5ccc(C(F)(F)F)cc5F)[C@@H]4C(=O)O)cc3)ccc2n1C (single isomer, unassigned) [Example 157]")
7.50
>>> assay_result("CN(c1ccc([C@H]2CCC[C@@H](C(=O)Nc3ccc(C(F)(F)F)cc3F)[C@@H]2C(=O)O)cc1)S(=O)(=O)c1cc(I)c2occc2c1")
8.36
>>> assay_result("Cc1nc2cc(S(=O)(=O)N(C)c3ccc([C@H]4C[C@@H](O[C@H]5CCOC5)C[C@@H](C(=O)Nc5ccc(C(F)(F)F)cc5F)[C@@H]4C(=O)O)cc3)ccc2n1C (stereo in doubt)")
5.60
>>> assay_result("Cc1nc2cc(S(=O)(=O)N(C)c3ccc([C@H]4CCC[C@@H](C(=O)Nc5ccc(C(F)(F)F)cc5F)[C@@H]4C(=O)O)cc3)cc(C3CCCN(C)C3)c2n1C (relative stereo)")
7.18
>>> assay_result("Cc1nc2cc(S(=O)(=O)N(C)c3ccc([C@H]4C[C@@H](N5CCOCC5)C[C@@H](C(=O)Nc5ccc(C(F)(F)F)cc5F)[C@@H]4C(=O)O)cc3)ccc2n1C (single isomer, unassigned) [Example 337]")
7.45

Kindly review the next compound as well.
Please provide the recorded Free Drug SW48 pCC50 for Cc1nc2cc(S(=O)(=O)N(C)c3ccc([C@H]4C[C@@H](N5CCOCC5)C[C@@H](C(=O)Nc5ccc(C(F)(F)F)cc5F)[C@@H]4C(=O)O)cc3)ccc2n1C (single isomer, unassigned) [Example 340] , tested on SW48 human colorectal cancer cells.
5.99
